# tgt: T1, human PAC1 (human, UniProt P41586 21-468)
# T1 sequence (looked up): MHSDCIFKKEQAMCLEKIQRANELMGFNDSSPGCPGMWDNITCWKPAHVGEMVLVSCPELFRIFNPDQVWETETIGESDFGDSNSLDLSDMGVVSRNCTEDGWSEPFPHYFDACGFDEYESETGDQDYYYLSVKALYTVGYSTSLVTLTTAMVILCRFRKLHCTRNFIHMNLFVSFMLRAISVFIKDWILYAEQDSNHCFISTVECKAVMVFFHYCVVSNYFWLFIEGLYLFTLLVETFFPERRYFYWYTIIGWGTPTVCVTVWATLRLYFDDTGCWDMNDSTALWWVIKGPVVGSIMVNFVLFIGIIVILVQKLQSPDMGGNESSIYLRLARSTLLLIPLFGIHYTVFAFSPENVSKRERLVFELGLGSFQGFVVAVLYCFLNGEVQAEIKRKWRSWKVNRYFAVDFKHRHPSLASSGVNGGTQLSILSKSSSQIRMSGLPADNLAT
# assay remarks: cell-based or functional assay
Primed or numbered codes have the meaning given here. Where no end group is shown, it is not given here. [ ]: non-standard residue; d: D form. Glc = glucose on Ser (glucosylated Ser); Glc″ = glucose, glycoside on Ser; Lac′ = lactose, glycoside on Ser; Nva = CCC[C@H](N)C(=O)O; Sar = CNCC(=O)O
This listing pairs binders with measured cAMP stimulation EC50.

# binder, cAMP stimulation EC50 [nM]
measured = [
    ("HSDGIFTDSYSRYRKQ[Nva]AVKKYLS-NH2 (not fully specified) [CRA-DV-3022]", 2.2),
    ("HSDGIFTDSYSRYRKQ[Nva]AVKKYLS(Glc″)-NH2 [CRA-DV-3023]", 0.64),
    ("HSD[Sar]IFTDSYSRYRKQ[Nva]AVKKYLS(Lac′)-NH2 [CRA-TG-3027]", 67),
    ("HSDAIFTDSYSRYRKQ[Nva]AVKKYLS(Lac′)-NH2 [CRA-TG-3026]", 7),
    ("HSDGIFTDSYSRYRKQ[Nva]AVKKYLS(Lac′)-NH2 [CRA-TG-3025]", 1.8),
    ("HSDGIFTDSYSRYRKQ[Nva]AVKKYLS(Glc)S(Glc)-NH2 [CRA-DV-3024]", 1.9),
]
